test.details: Degradation assay in human plasma (enzymatic stability)
Format: in vitro ADME
setup.conditions: human blood plasma, 37 °C, after 24 h, read-out: initial concentration still present in plasma
Square brackets hold non-standard residues; d marks the D form. Side chains are listed from the residue outwards. Peptide text beside a SMILES is read from it. hArg = N=C(N)NCCCC[C@H](N)C(=O)O; ΔPro = O=C(O)[C@@H]1C=CCN1; Dab = NCC[C@H](N)C(=O)O
readout.kind: remaining at 24 h

Per the record, N=C(N)NCCCC[C@H](N)C(=O)NCCCC[C@H](NC(=O)[C@@H](N)CS)C(=O)N[C@@H](CCN)C(=O)N1CC=C[C@H]1C(=O)N[C@@H](CCCNC(=N)N)C(=O)O [Compound 3, H-Cys-Lys(hArg)-Dab-Dhp-Arg-OH] (H-CK(hArg)[Dab][ΔPro]R-OH) has remaining at 24 h of ~50%

Entry under test: N=C(N)NCCCC[C@H](NC(=O)[C@@H](N)CS)C(=O)NCCCC[C@H](N)C(=O)N[C@@H](CCN)C(=O)N1CC=C[C@H]1C(=O)N[C@@H](CCCNC(=N)N)C(=O)O [Compound 4, H-Lys(Cys-hArg)-Dab-Dhp-Arg-OH] (H-K([hArg-Cys])[Dab][ΔPro]R-OH) . Its remaining at 24 h was ~50%
